Where do the numbers come from? From ChEMBL document CHEMBL1155442.

SYSTEM TESTED: Lysosomal acid glucosylceramidase (Homo sapiens) (UniProt P04062)
Sequence (P04062 whole entry): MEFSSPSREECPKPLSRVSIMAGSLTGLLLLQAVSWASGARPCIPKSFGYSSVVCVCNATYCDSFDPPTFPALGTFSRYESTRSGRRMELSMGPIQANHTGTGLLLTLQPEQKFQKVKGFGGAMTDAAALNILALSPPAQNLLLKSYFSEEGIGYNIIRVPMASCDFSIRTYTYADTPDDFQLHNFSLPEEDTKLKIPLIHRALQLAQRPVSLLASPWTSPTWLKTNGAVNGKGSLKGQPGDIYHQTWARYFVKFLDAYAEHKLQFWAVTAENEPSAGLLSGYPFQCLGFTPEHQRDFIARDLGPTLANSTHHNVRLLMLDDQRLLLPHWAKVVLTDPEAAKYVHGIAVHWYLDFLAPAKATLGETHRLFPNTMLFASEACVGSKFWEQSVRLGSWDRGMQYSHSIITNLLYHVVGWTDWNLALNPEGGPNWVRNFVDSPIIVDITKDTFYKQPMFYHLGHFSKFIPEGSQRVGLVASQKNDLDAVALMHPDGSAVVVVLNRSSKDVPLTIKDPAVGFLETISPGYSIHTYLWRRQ
TEST: Binding affinity to recombinant beta-glucocerebrosidase assessed as enzymatic activity at 150 uM after 60 mins by thermal stabilization assay relative to control
MEASURE NAME: fold change (FC)

[[record]]
chemical_string = "CCCCCCCCCCCCCCn1cc(CN[C@H]2[C@H](O)[C@@H](O)[C@H](O)[C@@H](O)[C@@H]2O)nn1"
measure_name = "fold change (FC)"
endpoint_result = 9.4

[[record]]
chemical_string = "CCCCCCCCCCCn1cc(CCN[C@H]2[C@H](O)[C@@H](O)[C@H](O)[C@@H](O)[C@@H]2O)nn1"
measure_name = "fold change (FC)"
endpoint_result = 5.3

[[record]]
chemical_string = "CCCCCCCCCCn1cc(CN[C@H]2[C@H](O)[C@@H](O)[C@H](O)[C@@H](O)[C@@H]2O)nn1"
measure_name = "fold change (FC)"
endpoint_result = 25.9

[[record]]
chemical_string = "CCCCCCCCCCN[C@H]1[C@H](O)[C@@H](O)[C@H](O)[C@@H](O)[C@@H]1O"
measure_name = "fold change (FC)"
endpoint_result = 11.3

[[record]]
chemical_string = "CCCCCCCCCn1cc(CN[C@H]2[C@H](O)[C@@H](O)[C@H](O)[C@@H](O)[C@@H]2O)nn1"
measure_name = "fold change (FC)"
endpoint_result = 15.5

[[record]]
chemical_string = "CCCCCCCCCCCCn1cc(CN[C@H]2[C@H](O)[C@@H](O)[C@H](O)[C@@H](O)[C@@H]2O)nn1"
measure_name = "fold change (FC)"
endpoint_result = 26.2

[[record]]
chemical_string = "CCCCCCCCCn1cc(CCN[C@H]2[C@H](O)[C@@H](O)[C@H](O)[C@@H](O)[C@@H]2O)nn1"
measure_name = "fold change (FC)"
endpoint_result = 9.44

